These data points were gathered from patent US20080248511A1.

TESTED_ON: UniProt P27652
Sequence (P27652 1-311): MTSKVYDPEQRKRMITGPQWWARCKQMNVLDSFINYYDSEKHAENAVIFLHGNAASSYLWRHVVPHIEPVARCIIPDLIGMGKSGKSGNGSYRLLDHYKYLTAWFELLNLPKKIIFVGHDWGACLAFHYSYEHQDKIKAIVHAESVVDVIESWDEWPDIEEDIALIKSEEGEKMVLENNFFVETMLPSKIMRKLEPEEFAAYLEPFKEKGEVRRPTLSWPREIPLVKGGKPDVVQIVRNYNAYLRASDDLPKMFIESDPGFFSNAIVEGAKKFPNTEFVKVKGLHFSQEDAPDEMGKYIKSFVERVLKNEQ
PROTOCOL_TEXT: Non-detergent compound screen, Renilla luciferase (Example 6)
Type: biochemical
CONDITION_SET: inhibitor 10 μM; 0.5% Tergitol NP-9, 0.03% BDDABr; read-out: Retained Renilla Luciferase Value (%)
Mark each entry y if its remaining activity at 10 µM sits below 80%, and n for all others.

{"SMILES_REPRESENTATION": "COc1ccc(CNC(=O)/C=C/c2ccc3c(c2)c(CCN(C)C)cn3Cc2ccccc2)cc1", "CLASS_NAME": "n"}
{"SMILES_REPRESENTATION": "COc1ccc(CNC(=O)/C=C/c2ccc3[nH]cc(CCCN(C)C)c3c2)cc1", "CLASS_NAME": "y"}
{"SMILES_REPRESENTATION": "CN(C)CCc1c[nH]c2ccc(/C=C/C(=O)NCc3ccc([N+](=O)[O-])cc3)cc12", "CLASS_NAME": "y"}
{"SMILES_REPRESENTATION": "COc1ccc(CCNC(=O)/C=C/c2ccc3[nH]cc(CCN(C)C)c3c2)cc1", "CLASS_NAME": "y"}
{"SMILES_REPRESENTATION": "COc1ccc(CNC(=O)/C=C/c2ccc3[nH]cc(CCN(C)C)c3c2)c(OC)c1", "CLASS_NAME": "y"}
{"SMILES_REPRESENTATION": "COc1ccc(CNC(=O)/C=C/c2ccc3[nH]ccc3c2)cc1", "CLASS_NAME": "n"}

----------
List of Selective Inhibition (Ff Luc Inh/Ren Luc Inh) values.
TESTED_ON: Renilla luciferase (Renilla reniformis)
PROTOCOL_TEXT: Detergent titration with Tergitol NP-9, digitonin or no lysing agent, Renilla luciferase (Example 4)
Type: biochemical
CONDITION_SET: 0.0005% detergent; Terg
READOUT: Selective Inhibition (Ff Luc Inh/Ren Luc Inh)

{"MOLECULE": "CCCCC[N+](CCCCC)(CCCCC)CCCCC.[Br-] [Tetrapentylammonium bromide]", "TEST_RESULT": 1.0}
{"MOLECULE": "CCCCCCCCCCCC[N+](C)(C)Cc1ccccc1.[Br-] [Benzyldimethyldodecylammonium bromide]", "TEST_RESULT": 1.1}
{"MOLECULE": "CCCCCCCCCCCC[N+](C)(C)C.[Br-] [Dodecyltrimethylammonium bromide]", "TEST_RESULT": 1.0}
{"MOLECULE": "Cc1cc(C)c(C[N+](C)(C)C)cc1C.[Br-]", "TEST_RESULT": 1.0}
{"MOLECULE": "CCCCCCCCCCCCCCCC[N+](C)(C)C.[Cl-] [Cetyltrimethylammonium chloride]", "TEST_RESULT": 1.0}
{"MOLECULE": "CCCCCCCCCCCCCC[N+](C)(C)Cc1ccccc1.[Br-] [Benzyldimethyltetradecylammonium bromide]", "TEST_RESULT": 1.0}

----------
List of Retained Firefly Luminescence (%) values.
TESTED_ON: firefly luciferase (Photinus pyralis)
Sequence (P08659 whole entry): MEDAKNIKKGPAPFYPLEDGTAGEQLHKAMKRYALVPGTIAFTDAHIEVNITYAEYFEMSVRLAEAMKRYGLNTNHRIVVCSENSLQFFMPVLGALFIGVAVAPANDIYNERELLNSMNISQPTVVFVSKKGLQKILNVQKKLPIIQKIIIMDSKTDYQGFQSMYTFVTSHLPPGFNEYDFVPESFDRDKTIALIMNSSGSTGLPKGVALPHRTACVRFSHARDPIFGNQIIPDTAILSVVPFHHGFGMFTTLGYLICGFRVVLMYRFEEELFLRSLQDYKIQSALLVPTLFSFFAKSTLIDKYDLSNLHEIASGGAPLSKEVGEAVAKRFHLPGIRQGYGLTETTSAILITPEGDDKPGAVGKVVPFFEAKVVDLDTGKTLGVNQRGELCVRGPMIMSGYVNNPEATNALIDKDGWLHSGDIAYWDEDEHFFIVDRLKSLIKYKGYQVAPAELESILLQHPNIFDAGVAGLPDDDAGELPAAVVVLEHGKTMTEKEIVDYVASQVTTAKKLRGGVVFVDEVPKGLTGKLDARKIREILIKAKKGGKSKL
PROTOCOL_TEXT: Detergent screen with Tergitol NP-9, firefly luciferase (Example 3)
Type: biochemical
CONDITION_SET: 0.06% quencher in reagent solution; 0.5% Tergitol NP-9
READOUT: Retained Firefly Luminescence (%)

{"COMPOUND": "CCCCCCCCCCCC[N+](C)(C)Cc1ccc(C(=O)[O-])cc1 [Compound 1424]", "MEASURE_UNIT": "%", "TEST_RESULT": 127.0}
{"COMPOUND": "CCCCCC[N+](C)(C)Cc1ccccc1.[Br-]", "MEASURE_UNIT": "%", "TEST_RESULT": 103}
{"COMPOUND": "CCCCCCCCCCCC[N+](C)(C)Cc1ccccc1-c1ccccc1.[Br-]", "MEASURE_UNIT": "%", "TEST_RESULT": 177.0}
{"COMPOUND": "CCCCCCCCCCCC[N+](C)(C)Cc1ccccc1.[Br-] [Benzyldimethyldodecylammonium bromide]", "MEASURE_UNIT": "%", "TEST_RESULT": 119}
{"COMPOUND": "CCCCCCCCCCCCOCC[N+](C)(C)Cc1ccccc1.[Cl-]", "MEASURE_UNIT": "%", "TEST_RESULT": 174.0}

----------
TESTED_ON: Renilla luciferase (Renilla reniformis)
Sequence (P27652 1-311): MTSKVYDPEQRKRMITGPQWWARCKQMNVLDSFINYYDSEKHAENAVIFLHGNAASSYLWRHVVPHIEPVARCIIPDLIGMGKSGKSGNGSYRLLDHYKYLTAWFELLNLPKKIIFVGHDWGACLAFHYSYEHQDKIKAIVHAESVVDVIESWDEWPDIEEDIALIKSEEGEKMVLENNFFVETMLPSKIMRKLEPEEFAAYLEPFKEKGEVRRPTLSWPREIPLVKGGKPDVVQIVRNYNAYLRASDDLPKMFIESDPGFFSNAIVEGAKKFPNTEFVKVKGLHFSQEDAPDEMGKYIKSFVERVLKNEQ
PROTOCOL_TEXT: Detergent titration with Tergitol NP-9, digitonin or no lysing agent, Renilla luciferase (Example 4)
Format: biochemical
CONDITION_SET: 0.0050% detergent; Water
Cut-off 20 on Selective Inhibition (Ff Luc Inh/Ren Luc Inh), inclusive. At or above means met; below means not met.

{"COMPOUND": "CCCCCCCCCCCC[N+](C)(C)Cc1ccccc1.[Br-] [Benzyldimethyldodecylammonium bromide]", "CLASS_NAME": "met"}
{"COMPOUND": "CCCCCCCCCCCCCC[N+](C)(C)Cc1ccccc1.[Br-] [Benzyldimethyltetradecylammonium bromide]", "CLASS_NAME": "met"}
{"COMPOUND": "CCCCCCCCCCCC[N+](C)(C)C.[Br-] [Dodecyltrimethylammonium bromide]", "CLASS_NAME": "not met"}
{"COMPOUND": "CCCCC[N+](CCCCC)(CCCCC)CCCCC.[Br-] [Tetrapentylammonium bromide]", "CLASS_NAME": "not met"}
{"COMPOUND": "Cc1cc(C)c(C[N+](C)(C)C)cc1C.[Br-]", "CLASS_NAME": "not met"}
{"COMPOUND": "CCCCCCCCCCCCCCCC[N+](C)(C)C.[Cl-] [Cetyltrimethylammonium chloride]", "CLASS_NAME": "met"}

----------
TESTED_ON: UniProt P27652
PROTOCOL_TEXT: Quench of Renilla luciferase luminescence by competitive inhibitors in detergent-containing quenching reagent (Example 1)
CONDITION_SET: in the presence of lysing detergent and quenching reagent

{"COMPOUND": "O=C(Cc1ccc(O)cc1)Nc1ncc(-c2ccc(O)cc2)nc1Cc1ccccc1 [coelenteramide]", "Ki": "> 100 µM"}

----------
TESTED_ON: Renilla luciferase (Renilla reniformis, UniProt P27652)
PROTOCOL_TEXT: biochemical
Type: biochemical
CONDITION_SET: retained firefly / retained Renilla; 0.5% detergent
Cut-off 2 on Selectivity Value, inclusive. At or above means Satisfied; below means Not satisfied.

{"COMPOUND": "C[C@H](CCC(=O)NCCC[N+](C)(C)CCCS(=O)(=O)[O-])[C@H]1CC[C@H]2[C@@H]3[C@H](O)C[C@@H]4C[C@H](O)CC[C@]4(C)[C@H]3C[C@H](O)[C@]12C [CHAPS]", "CLASS_NAME": "Not satisfied"}
{"COMPOUND": "C[N+](C)(C)CCCBr.[Br-] [(3-Bromopropyl)trimethylammonium bromide]", "CLASS_NAME": "Not satisfied"}
{"COMPOUND": "CCCCCCCCCC[N+](C)(C)CCCS(=O)(=O)[O-] [Zwittergent 3-10]", "CLASS_NAME": "Satisfied"}
{"COMPOUND": "CCCCCCCCCCCC[N+](C)(C)C.[Br-] [Dodecyltrimethylammonium bromide]", "CLASS_NAME": "Satisfied"}
{"COMPOUND": "CCCCC[N+](CCCCC)(CCCCC)CCCCC.[Br-] [Tetrapentylammonium bromide]", "CLASS_NAME": "Satisfied"}
{"COMPOUND": "CCCCCCCCCCCC[N+](C)(C)Cc1ccccc1.[Br-] [Benzyldimethyldodecylammonium bromide]", "CLASS_NAME": "Satisfied"}

----------
List of remaining activity at 1000 µM values.
TESTED_ON: Renilla luciferase (Renilla reniformis)
PROTOCOL_TEXT: Non-detergent compound screen, Renilla luciferase (Example 6)
Assay type: biochemical
CONDITION_SET: inhibitor 1000 μM; 0.5% Tergitol NP-9, 0.03% BDDABr; read-out: Retained Renilla Luciferase Value (%)
READOUT: remaining activity at 1000 µM (%)

{"COMPOUND": "COc1ccc(COC(=O)/C=C/c2ccc3[nH]cc(CCN(C)C)c3c2)cc1 [Compound 3045]", "TESTED_ON": "Renilla luciferase (Renilla reniformis)", "TEST_RESULT": 74.7}
{"COMPOUND": "CN(C)CCc1c[nH]c2ccc(/C=C/C(=O)N3CCOCC3)cc12 [Compound 3064]", "TESTED_ON": "Renilla luciferase (Renilla reniformis)", "TEST_RESULT": 9}
{"COMPOUND": "COc1ccc(CNC(=O)/C=C/c2ccc3oc(=O)cc(C)c3c2)cc1 [Compound 3057]", "TESTED_ON": "Renilla luciferase (Renilla reniformis)", "TEST_RESULT": 77.5}
{"COMPOUND": "COc1ccc(CNC(=O)/C=C/c2ccc3[nH]cc(CN(C)C)c3c2)cc1 [Compound 3067]", "TESTED_ON": "Renilla luciferase (Renilla reniformis)", "TEST_RESULT": 7}
{"COMPOUND": "COc1ccc(CNC(=O)/C=C/c2ccc3c(ccc[n+]3C)c2)cc1.[I-] [Compound 3061]", "TESTED_ON": "Renilla luciferase (Renilla reniformis)", "TEST_RESULT": 36}
{"COMPOUND": "COc1ccc(CNC(=O)/C=C/c2ccc3[nH]cc(CCN(C)C)c3c2)cc1 [Compound 3068]", "TESTED_ON": "Renilla luciferase (Renilla reniformis)", "TEST_RESULT": 2.1}
{"COMPOUND": "COc1ccc(CNC(=O)/C=C/c2ccc3[nH]cc(CCN(C)C)c3c2)c(OC)c1 [Compound 3051]", "TESTED_ON": "Renilla luciferase (Renilla reniformis)", "TEST_RESULT": 1.9}
{"COMPOUND": "CCCCCCNC(=O)/C=C/c1ccc2[nH]cc(CCN(C)C)c2c1 [Compound 3050]", "TESTED_ON": "Renilla luciferase (Renilla reniformis)", "TEST_RESULT": 55}
{"COMPOUND": "COc1ccc(CNC(=O)/C=C/c2ccc3ncccc3c2)cc1 [Compound 3046]", "TESTED_ON": "Renilla luciferase (Renilla reniformis)", "TEST_RESULT": 24.5}
{"COMPOUND": "COc1ccc(CNC(=O)/C=C/c2ccc3[nH]ccc3c2)cc1 [Compound 3056]", "TESTED_ON": "Renilla luciferase (Renilla reniformis)", "TEST_RESULT": 32.6}
{"COMPOUND": "COc1cc(CNC(=O)/C=C/c2ccc3[nH]cc(CCN(C)C)c3c2)cc(OC)c1OC [Compound 3072]", "TESTED_ON": "Renilla luciferase (Renilla reniformis)", "TEST_RESULT": 55.2}
{"COMPOUND": "COc1ccc(CNC(=O)COc2ccc3[nH]cc(CCN(C)C)c3c2)cc1 [Compound 3031]", "TESTED_ON": "Renilla luciferase (Renilla reniformis)", "TEST_RESULT": 66.5}
{"COMPOUND": "C=C(C(=O)NCc1ccc(OC)cc1)c1ccc2[nH]ccc2c1 [Compound 3054]", "TESTED_ON": "Renilla luciferase (Renilla reniformis)", "TEST_RESULT": 93.3}
{"COMPOUND": "CCCC[N+](C)(C)CCc1c[nH]c2ccc(/C=C/C(=O)NCc3ccc(OC)cc3)cc12.[I-] [Compound 3077]", "TESTED_ON": "Renilla luciferase (Renilla reniformis)", "TEST_RESULT": 0.1}
{"COMPOUND": "COc1ccc(CCNC(=O)/C=C/c2ccc3[nH]cc(CCN(C)C)c3c2)cc1 [Compound 3062]", "TESTED_ON": "Renilla luciferase (Renilla reniformis)", "TEST_RESULT": 5.1}
{"COMPOUND": "COc1cc(OC)c(CNC(=O)/C=C/c2ccc3[nH]cc(CCN(C)C)c3c2)c(OC)c1 [Compound 3073]", "TESTED_ON": "Renilla luciferase (Renilla reniformis)", "TEST_RESULT": 34.5}
{"COMPOUND": "COc1ccc(CNC(=O)/C(C#N)=C/CCCCCCCBr)cc1 [Compound 3059]", "TESTED_ON": "Renilla luciferase (Renilla reniformis)", "TEST_RESULT": 94.6}
{"COMPOUND": "COc1ccc(CNC(=O)/C(C#N)=C/c2ccc3[nH]cc(CCN(C)C)c3c2)cc1 [Compound 3044]", "TESTED_ON": "Renilla luciferase (Renilla reniformis)", "TEST_RESULT": 7.6}
{"COMPOUND": "C=C(C(=O)NCc1ccc(OC)cc1)c1ccc2oc(=O)cc(C)c2c1 [Compound 3058]", "TESTED_ON": "Renilla luciferase (Renilla reniformis)", "TEST_RESULT": 98.8}
{"COMPOUND": "COc1ccc(CNC(=O)/C=C/c2ccc3[nH]cc(CCCN(C)C)c3c2)cc1 [Compound 3071]", "TESTED_ON": "Renilla luciferase (Renilla reniformis)", "TEST_RESULT": 2.5}
{"COMPOUND": "C=C(C(=O)NCc1ccc(OC)cc1)c1ccc2ncccc2c1 [Compound 3053]", "TESTED_ON": "Renilla luciferase (Renilla reniformis)", "TEST_RESULT": 84.7}
{"COMPOUND": "COc1ccc(CNC(=O)/C=C/c2ccc3c(c2)c(CCN(C)C)cn3Cc2ccccc2)cc1 [Compound 3055]", "TESTED_ON": "Renilla luciferase (Renilla reniformis)", "TEST_RESULT": 20}
{"COMPOUND": "CN(C)CCc1c[nH]c2ccc(/C=C/C(=O)NCc3ccc([N+](=O)[O-])cc3)cc12 [Compound 3063]", "TESTED_ON": "Renilla luciferase (Renilla reniformis)", "TEST_RESULT": 3.1}
